Each recorded value in this set is attributed to patent EP2373335B1.

Reported values of Relative IC50 for individual entries
- Experimental target: T1, FPN1-GFP (human, UniProt Q9NP59 1-571, A GFP reporter is fused to the C terminus of FPN1. Its letters are not given, so it is left out.)
- T1 sequence: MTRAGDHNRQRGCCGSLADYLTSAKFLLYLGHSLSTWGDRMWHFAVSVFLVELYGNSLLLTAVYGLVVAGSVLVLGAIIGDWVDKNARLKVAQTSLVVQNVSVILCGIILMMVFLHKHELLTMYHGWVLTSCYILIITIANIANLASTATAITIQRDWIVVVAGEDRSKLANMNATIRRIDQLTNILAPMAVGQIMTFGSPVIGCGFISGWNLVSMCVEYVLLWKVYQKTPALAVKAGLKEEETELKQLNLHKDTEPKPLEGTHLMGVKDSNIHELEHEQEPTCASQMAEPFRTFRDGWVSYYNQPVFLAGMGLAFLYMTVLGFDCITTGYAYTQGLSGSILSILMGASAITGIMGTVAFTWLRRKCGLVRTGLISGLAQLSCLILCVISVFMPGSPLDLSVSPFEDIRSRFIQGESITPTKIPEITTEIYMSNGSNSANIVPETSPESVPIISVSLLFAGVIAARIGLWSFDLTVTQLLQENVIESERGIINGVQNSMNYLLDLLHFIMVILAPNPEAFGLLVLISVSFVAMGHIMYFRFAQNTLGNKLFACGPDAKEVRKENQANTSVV
- Test name: cell-based or functional assay
Reply numerically in nM, unit not repeated.

| Binder | Relative IC50, nM |
| --- | --- |
| Mab 4A10-3 (antibody, human IgG4 S228P, kappa, F234A L235A, V domains shown) VH: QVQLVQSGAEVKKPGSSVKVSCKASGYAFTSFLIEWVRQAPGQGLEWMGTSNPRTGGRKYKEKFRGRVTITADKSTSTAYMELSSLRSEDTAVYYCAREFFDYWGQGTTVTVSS VL: DIQMTQSPSSLSASVGDRVTITCRASKSISKYTAWYQQKPGKAPKLLIYAGSKLHWGVPSRFSGSGSGTDFTLTISSLQPEDFATYYCQQHNEYPYTFGGGTKVEIKR | 4.7 |

Enquiry: Request the reported Relative IC50 associated with Mab 1G9 (antibody, mouse IgG1, kappa, V domains shown) VH: QVQLKQSGAELVRPGTSVKVSCKASGYAFTSFLIEWLKQRPGQGLEWIGTINPRTGGTKYNEKFRGKATLTADKSSSTAYMQLNSLTSDDSAVYFCVREFFDYWGQGTSLTVSS VL: ETTVTQSPSYLAASPGETITINCRASKSISKYLAWFQEKPGKTNKLLIYAGSKLHSGIPSRFSGSGSGTDFTLTISSLEPEDFAMYYCFQHNEYPYTFGGGTKLELKR
Return: 9.2
